Cited source for all entries: PubChem BioAssay (NCI)

Tested on: HS 578T breast
test: NCI tumour cell line growth inhibition, 48 h
recorded.endpoint: TGI

Item `C[C@@H]1CCC([C@@H](C)[C@H]2CC[C@H]3[C@@H]4CC[C@H]5C[C@@H](O)CC[C@]5(C)[C@H]4CC[C@]23C)=NC1` : provide TGI
> 100 µM

// fetch TGI given entry COC(=O)c1ccccc1CC(Cc1ccc2c(c1)CCC2)C(=O)OC (stereo unspecified)
> 100 µM

Please give the documented TGI of CCOC(=O)C1(N)CCc2[nH][nH]c(=O)c2C1 (stereo unspecified)
> 100 µM

Report TGI, nothing else, for this compound: `C[C@@H](NC(=O)/C(C#N)=C/c1ccc([N+](=O)[O-])cc1)c1ccccc1`
> 32.9 µM

Read off the recorded TGI for `C=C1C(=O)O[C@H]2C[C@@H]1CC/C(C)=C/CC/C(C)=C/CC[C@@]2(C)O`
> 100 µM

Read the entry `COc1ccc(C2=C(N)c3c(Cl)cccc3C2=O)cc1` and write its reported TGI.
> 100 µM

====

System: A498 renal
test: NCI tumour cell line growth inhibition, 48 h
recorded.endpoint: GI50

Provide only the value of recorded GI50 for `COc1ccc2c(O)c(/C=C3\N=Nc4ccccc43)oc2c1C[C@@H]1CCNC[C@H]1F`
11.3 µM

Return the recorded GI50 value; entry: O=c1[nH]c(=O)c2cc3cc(C4CC(O)C(CO)O4)ccc3cc2[nH]1 (configuration not stated)
> 100 µM

Look up GI50 of `C[C@]12CC[C@@H]3c4cc(O)c(O)cc4CC[C@H]3[C@@H]1CC[C@@H]2O` and report it.
19.7 µM

Identify GI50 associated with the molecule `CC[C@@]1(O)C(=O)OCc2c1cc1n(c2=O)Cc2cc3cccc([N+](=O)[O-])c3nc2-1`
1.43 µM

State its GI50: `CCCCCCCCC/C(=N\NC(=O)c1ccncc1)c1ccc(O)c(O)c1O`
1.56 µM

Tell us which GI50 value is on record for `COc1cccc(/C=N/NC(=O)c2ccccc2N2CCCC2)c1O`
4.97 µM

Quickly give me recorded GI50 for `CCOC(=O)Nc1nc2ccc(Br)cc2s1`
> 50 µM

====

System: RPMI-8226 leukemia
test: NCI tumour cell line growth inhibition, 48 h
recorded.endpoint: TGI

Write down the reported TGI (system: RPMI-8226 leukemia) of CN(C)CCCNc1ncnc2c1ncn2C1OC(CO)C(O)C1O (centres undefined)
> 100 µM

Provide RPMI-8226 leukemia TGI reading for CC(C)CC(=O)NC(C(=O)NC(C(=O)NC(CC(C)C)C(O)CC(=O)NC(C)C(=O)NC(CC(C)C)C(O)CC(=O)O)C(C)C)C(C)C (centres undefined) .
> 100 µM

Please tell me the measured TGI for `COC(=O)c1ccccc1NC(=NC1CCCCCC1)NS(=O)(=O)c1ccc(C)cc1` ; system: RPMI-8226 leukemia.
> 100 µM

// fetch TGI for `Cc1ccc(N=NC(=Nc2ccc(Cl)cc2)c2ccc(N(CCC#N)CCC#N)cc2)cc1` ; system: RPMI-8226 leukemia
> 100 µM

Check RPMI-8226 leukemia data and give TGI for `O[C@H]1[C@H](O)[C@@H](O)[C@@]2(O)CC[C@@H]1N2` .
> 52.4 µM

Recall the reported TGI of `O=C(/C(=C/c1ccc([N+](=O)[O-])cc1)SCc1ccc(Cl)cc1)c1ccc(F)cc1` when tested on RPMI-8226 leukemia.
4 µM

Provide RPMI-8226 leukemia TGI reading for `Cc1ccc(C(c2c(O)c3ccccc3n(-c3ccccc3)c2=O)c2c(O)c3ccccc3n(-c3ccccc3)c2=O)cc1` .
> 100 µM

System RPMI-8226 leukemia. Read-out TGI. Item `COc1ccc2nc3c([N+](=O)[O-])ccc(NCCCN(C)C)c3c(NCCCN(C)C)c2c1` . Report value.
2.53 µM

# lookup: RPMI-8226 leukemia TGI, key = `CCc1nc(N)nc(N)c1-c1ccc2nnn(O)c2c1`
> 100 µM
